Consider the following IC50 values measured on Transcription factor SOX-18 (Mouse, UniProt P43680).
Sequence (P43680 whole entry): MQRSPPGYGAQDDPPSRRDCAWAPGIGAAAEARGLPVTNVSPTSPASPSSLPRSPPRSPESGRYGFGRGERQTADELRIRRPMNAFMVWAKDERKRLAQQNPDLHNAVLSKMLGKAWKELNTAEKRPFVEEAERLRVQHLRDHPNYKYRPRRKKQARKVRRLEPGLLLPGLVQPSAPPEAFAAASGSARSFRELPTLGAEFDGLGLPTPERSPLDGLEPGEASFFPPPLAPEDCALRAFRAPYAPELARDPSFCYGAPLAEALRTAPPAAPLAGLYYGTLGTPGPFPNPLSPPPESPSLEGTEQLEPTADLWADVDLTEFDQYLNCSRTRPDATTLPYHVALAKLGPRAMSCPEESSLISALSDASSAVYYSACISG
measured.attribute: IC50 (µM)

molecule | measured.attribute | recorded.result
O=C(O)c1c(O)cccc1COCCC1C=CC=CC1 (configuration not stated) | IC50 | 1110
O=C(O)c1c(O)cccc1CCc1ccc2ccccc2c1 | IC50 | 97.5
